System: fibrosarcoma cell line HT1080
Assay: Ferroptosis screening model (MTT method), Erastin-induced ferroptosis
Type: cell-based, human
Conditions: HT1080, ferroptosis inducer Erastin, 72 h, average of three tests, read-out: EC50
pEC50: −log10 of the molar value.
ASSAY METRIC: pEC50

P = CC(c1ccc2c(c1)Nc1ccccc1S2)c1c2ccccc2cc2ccccc12 (centres unmarked)
Q = CC(C)Oc1ccc(C(C)c2ccc3c(c2)Nc2ccccc2S3)cc1 (centres unmarked) [Compound A34]
R = C=C(c1cnc(N2CCOCC2)nc1)c1ccc2c(c1)Nc1ccccc1S2 [Compound C51]
S = CC(c1ccc2c(c1)Nc1ccccc1S2)S(=O)(=O)N1CCN(c2ccccc2)CC1 (centres unmarked) [Compound C24]
Could you list the above compounds by pEC50, going from the biggest number down? Sort the labels as requested; that list is your answer.
P, Q, R, S
(P: 7.77, Q: 7.19, R: 6.84, S: 6.38)

P = C=C(c1ccc(C(=O)N2CCOCC2)cc1)c1ccc2c(c1)Nc1ccccc1S2
Q = CC(c1ccc2c(c1)Nc1ccccc1S2)S(=O)(=O)N1CC[C@H](CNC(=O)OC(C)(C)C)C1 (some centres unmarked)
// compare: P vs Q , metric pEC50, want the smaller Label of pick, please.
Q

a = CC(c1ccccc1)c1ccc2c(c1)Nc1ccccc1S2 (centres unmarked) [Compound A1, 2-(1-phenylethyl)-10H-phenothiazine]
b = CCOC(=O)c1ccc(NC2CCCCC2)c(N)c1 [Fer-1, Ferrostatin-1, reference compound]
Given a and b , report the one with the higher recorded pEC50. In your reply, give the label of the chosen option.
a
(a: 8.52, b: 7.22)

* * *

System: fibrosarcoma cell line HT1080
Test: Ferroptosis screening model (MTT method), Erastin-induced ferroptosis
Assay type: cell-based, human
Details: HT1080, ferroptosis inducer Erastin, 72 h, average of three tests, read-out: EC50
ASSAY METRIC: EC50 (nM)

P = COc1ccccc1N1CCN(S(=O)(=O)C(C)c2ccc3c(c2)Nc2ccccc2S3)CC1 (stereo not drawn) [Compound C49]
Q = C=C(c1ccc(N2CCOCC2)cc1)c1ccc2c(c1)Nc1ccccc1S2 [Compound B15]
R = C=C(c1ccc(N2CCOCC2)cc1)c1ccc2c(c1)Nc1ccccc1S2 [Compound B14]
Rank the 3 compounds shown above by EC50, smallest number first. Use the labels to give the ranking in the order requested.
R, P, Q
(R: 39 nM, P: 228 nM, Q: 680 nM)

I = CC(c1ccc2c(c1)Nc1ccccc1S2)S(=O)(=O)N1CCN(C(=O)c2ccc3c(c2)OCCO3)CC1 (stereo not drawn)
II = C=C(c1cnc(N2CCOCC2)nc1)c1ccc2c(c1)Nc1ccccc1S2 [Compound B51]
// compare: I vs II , metric EC50, want the smaller Returns: label corresponding to the selected item.
II
(II: 10 nM, I: 129 nM)

a = CC(c1ccc2c(c1)Nc1ccccc1S2)S(=O)(=O)N1CCN(c2ccccc2)CC1 (stereo not drawn) [Compound C28]
b = CC(C)Oc1ccc(C(C)c2ccc3c(c2)Nc2ccccc2S3)cc1 (stereo not drawn) [Compound A33]
Which of the two items, a and b , has the greater recorded EC50? Give the chosen item's label as your response.
a
(a: 142 nM, b: 17 nM)

I = CC(c1ccccc1)c1ccc2c(c1)Nc1ccccc1S2 (stereo not drawn) [Compound B1, 2-(1-phenylethyl)-10H-phenothiazine]
II = COc1ccccc1N1CCN(S(=O)(=O)C(C)c2ccc3c(c2)Nc2ccccc2S3)CC1 (stereo not drawn) [Compound C22]
Could you please tell me which of these two has the higher EC50: I or II ? Response format: the label of the selected entry.
II
(II: 730 nM, I: 10 nM)
